This collection of values is drawn from ChEMBL document CHEMBL1201862.

Please consider the recorded IC50 for Estrogen receptor (Homo sapiens, UniProt P03372) in what follows.
Calls of active or inactive are those of the source.

>  <compound>
COc1ccc(-n2nc(C(=O)Nc3ccc(OC)c(OC)c3)c3c4ccccc4n(C)c3c2=O)cc1

>  <IC50>
> 50 µM (not active)

$$$$
>  <compound>
CSc1ccc(C2C(C#N)=C(N)Oc3c2ccc(=O)c2c(C)oc(C)c32)cc1 (stereo not given)

>  <IC50>
> 50 µM (not active)

$$$$
>  <compound>
CS(=O)(=O)N(CC(=O)NCc1ccco1)c1ccc2c(c1)OCO2

>  <IC50>
40.1 µM (not active)

$$$$
>  <compound>
Clc1ccc(Nc2nc(-c3ccncc3)cs2)cc1

>  <IC50>
18.2 µM (active)

$$$$
>  <compound>
O=c1[nH]c2cc3c(cc2cc1CN(Cc1cccs1)Cc1nnnn1Cc1ccco1)OCCO3

>  <IC50>
> 50 µM (not active)

$$$$
